Test system: HT29 colon
Test: NCI-60 one-dose screen, 48 h
Conditions: 10 µM unless noted
The panel holds about 83,000 compounds, 20% with a hit somewhere; the sample as a whole holds those more often. Activity calls are given as the source filed them. Rule for the calls: active = growth percent below 10; inactive = the rest.
# output must be one of active, inactive

Example entries begin here.
- molecule: "O=C1Nc2ccccc2/C1=C\\c1c(-c2ccccc2)nc2ccccn12"
  system: "HT29 colon"
  label_value: "inactive"
- molecule: "CC(C)(C)c1cc(/C=N/NC(=O)c2ccccc2NC(=O)c2cccs2)c(O)c(C(C)(C)C)c1"
  system: "HT29 colon"
  label_value: "inactive"
- molecule: "COc1cc2oc(-c3cccc(C(=O)Nc4ccc5c(c4)OCO5)c3)cc(=O)c2c(O)c1OC"
  system: "HT29 colon"
  label_value: "inactive"
- molecule: "NC(=O)Nc1ccc(-n2cnc3cc(-c4ccc(O)cc4)ccc32)cc1"
  system: "HT29 colon"
  label_value: "active"
- molecule: "O=C(C[n+]1cccc2ccccc21)c1ccc(O)c(O)c1"
  system: "HT29 colon"
  label_value: "inactive"
- molecule: "C=C1C(=O)O[C@H]2[C@H]1CC/C(CNS(=O)(=O)c1cccc3ccccc13)=C\\CC[C@@]1(C)O[C@@H]21"
  system: "HT29 colon"
  label_value: "active"
- molecule: "O=[N+]([O-])CC(c1ccccc1F)c1c[nH]c2ccccc12 (stereo not given)"
  system: "HT29 colon"
  label_value: "inactive"
- molecule: "COc1ccc(Cc2cnc(NC(=O)c3ccc4c(c3)OCCO4)s2)cc1"
  system: "HT29 colon"
  label_value: "active"

Outcome? O=C(Cn1c[n+](CC(=O)c2ccc([N+](=O)[O-])cc2)c2ccccc21)Nc1cccc2cccnc12
inactive

Outcome? Nc1ccccc1NC(=O)c1ccc(-n2nc(-c3ccccc3)c3ccccc32)cc1
inactive

Outcome? CC1(C)CC(=O)C2=C(C1)N(c1ccc(F)cc1F)C(N)=C(C#N)C2c1cc(Br)ccc1F (stereo not given)
inactive

Outcome? Cn1c2ccccc2c2c3c(c4c5ccccc5n(C)c4c21)C(=O)OC3
inactive

Outcome? Cc1cc2cc3ccc(N(C)C)cc3nc2cc1N
active

Outcome? CCCCCCCCO/N=C\c1c2c(O)c3c(O)c(C)c4c(c3c1O)C(=O)C(C)(O/C=C\C(OC)C(C)C(OC(C)=O)C(C)C(O)C(C)C(O)C(C)/C=C\C=C(\C)C(=O)N2)O4 (stereo not given)
active

Outcome? COc1cc(/C=N/O)nc(-c2ccccn2)c1
inactive

Outcome? NC(=S)N1N=C(c2ccccc2)CC1c1cn(-c2ccccc2)nc1-c1ccc(OCc2ccccc2)cc1 (stereo not given)
inactive

Outcome? O=C(NNc1nc2c(F)cccc2n2cccc12)c1cnccn1
inactive

Outcome? CCCCCN1C=C/C(=C\C(=O)N(C)c2ccc(Oc3ccccc3)cc2)c2ccccc21
inactive

Outcome? C#Cc1cccc(NC(=O)Nc2cccc(NC(=O)CCl)c2)c1
inactive

Outcome? N#Cc1cc(-c2nc3ccccc3s2)c(=O)n(NS(=O)(=O)c2ccccc2)c1N
inactive

====

System: HS 578T breast
Assay: NCI-60 one-dose screen, 48 h (100 = growth as untreated, 0 = no growth, -100 = all killed)
Settings: 10 µM unless noted
This is part of a sample that, as a whole, favours compounds with a hit. Of some 83,000 tested, about 20% had one in any assay.
Entry flag: t if growth reaches 50%; f if it does not.

Example entries begin here.
- compound: "CN1CCN(C(=O)[C@]23CCC(C)(C)C[C@H]2C2=CC[C@@H]4[C@@]5(C)C/C(=C/c6cccnc6)C(=O)C(C)(C)[C@@H]5CC[C@@]4(C)[C@]2(C)CC3)CC1"
  system: "HS 578T breast"
  label_value: "t"
- compound: "O=S(=O)(NCCNc1nccc(-c2c(-c3cccc(O)c3)nc3occn23)n1)c1cccc(F)c1"
  system: "HS 578T breast"
  label_value: "t"
- compound: "NS(=O)(=O)c1ccc(CCN2C(=O)C=CC2=O)cc1"
  system: "HS 578T breast"
  label_value: "t"
- compound: "OC(c1cccc(C(F)(F)F)c1)c1cnccc1NC1CCCCC1 (stereo not given)"
  system: "HS 578T breast"
  label_value: "t"

--- query ---
Confirm if growth reported for the compound COC(=O)c1ccc2c(c1)[n+](=O)c(C(C)=O)c(C(F)(F)F)n2[O-] is 50% or above.
f

====

System: OVCAR-8 ovarian
Experiment: NCI-60 one-dose screen, 48 h (100 = growth as untreated, 0 = no growth, -100 = all killed)
Conditions: 10 µM unless noted
Experimental: Growth inhibition of the OVCAR-8 human tumor cell line is measured as a screen for anti-cancer activity. Cells are grown in 96 well plates and exposed to the test compound for 48 hours. Compounds are tested at a single concentration, which is 10^-5 M for most compounds. The reported endpoint is percent growth (GI% or GIPRCNT), where numbers from 0 - 100% represent growth inhibition, and numbers from -100% - 0 represent cell death. For example, a value of 40 represents 60% growth inhibition. […]
About 83,000 compounds went through this panel and 20% of them were active in at least one assay; those are over-represented in the sample as a whole.
param class (str): category from growth; see ranges low end: < 30%; middle: ≥ 30% and < 70%; high end: ≥ 70%

Example entries begin here.
- compound: "N=C1C(c2nc3ccccc3s2)=C(O)CN1c1cc(Cl)cc(Cl)c1"
  label_value: "middle"
- compound: "CCSCC1CC(O)(c2ccccc2)CC(c2ccc(F)cc2)O1 (stereo not given)"
  label_value: "low end"
- compound: "O=C1CC(=O)OC(c2ccc([N+](=O)[O-])cc2)O1"
  label_value: "low end"
- compound: "CCOC(=O)c1cc(C(=O)c2ccc(Br)cc2)n2ccc(/C=C/c3cc[n+](CC(=O)c4ccc(OC)cc4)cc3)cc12"
  label_value: "middle"
- compound: "CCOC(=O)CCN(CC(C)C)C(=S)Nc1ccccc1"
  label_value: "high end"
- compound: "COc1cc(C2C3=C(COC3=O)N(CCO)c3cc4c(cc32)OCO4)cc(OC)c1OC (stereo not given)"
  label_value: "low end"
- compound: "CC(=O)[C@@H]1CC[C@]2(CO)CC[C@]3(C)[C@H](CC[C@@H]4[C@@]5(C)CCCNC(C)(C)[C@@H]5CC[C@]43C)[C@@H]12"
  label_value: "high end"
- compound: "CCOc1ccc(Nc2nc(-c3ccc4c(c3)NC(=O)CO4)cs2)cc1"
  label_value: "middle"

Quick check: band for CCN(CC)c1ccc(/C=N/NC(=O)CSc2nc3ccccc3c(=O)n2CCc2ccc(S(N)(=O)=O)cc2)c(O)c1
low end

Quick check: band for CC1=C(C(=O)/C=C/c2ccc(N(C)C)cc2)C(c2ccccc2)NC(=S)N1 (stereo not given)
high end

====

System: BT-549 breast
Experiment: NCI-60 one-dose screen, 48 h (100 = growth as untreated, 0 = no growth, -100 = all killed)
Details: 10 µM unless noted
About 83,000 compounds went through this panel and 20% of them were active in at least one assay; those are over-represented in the sample as a whole.
For each entry below, report its growth value.
Numbers only, in %.

See these solved cases before continuing.
- chem_smiles: "O=C(Cc1ccc(/C=C/C(=O)c2nccs2)cc1)Nc1ccccc1"
  quantity_unit: "%"
  growth: 93
- chem_smiles: "C/C(=N\\Nc1cc(C)nc2ccc(Br)cc12)c1ccc([N+](=O)[O-])cc1"
  quantity_unit: "%"
  growth: 105
- chem_smiles: "COc1cccc(-c2nc3occn3c2-c2ccnc(NCCNS(=O)(=O)c3cccc4ccccc34)n2)c1"
  quantity_unit: "%"
  growth: 105

Let us move to another entry and its growth.
Form: compound = C=C(C)[C@@H]1CC[C@]2(C(=O)N3CCN(C)CC3)CC[C@]3(C)[C@H](CC[C@@H]4[C@@]5(C)C/C(=C/c6cccnc6)C(=O)C(C)(C)[C@@H]5CC[C@]43C)[C@@H]12 ; growth = 83.2

====

Tested on: SW-620 colon
Experiment: NCI-60 one-dose screen, 48 h
Conditions: 10 µM unless noted
Compounds without any hit were thinned out: in the full panel of roughly 83,000, 20% have a hit. The source made the active and inactive calls. Rule for the calls: active = growth percent below 10; inactive = the rest.
# output must be one of active, inactive

- compound: "CCNC(=O)Oc1ccc(/C(=C(\\C)c2ccccc2)c2ccc(OCCN3CCCCC3)cc2)cc1"
  system: "SW-620 colon"
  label_value: "inactive"
- compound: "CN(C)CCC(=O)c1ccc([N+](=O)[O-])cc1"
  system: "SW-620 colon"
  label_value: "inactive"
- compound: "O=c1ccc(-c2nc(N3CCOCC3)c3ccccc3n2)c[nH]1"
  system: "SW-620 colon"
  label_value: "inactive"
- compound: "Cc1nn(-c2ccccc2)c(Cl)c1/C=C/C(=O)c1ccc(F)cc1"
  system: "SW-620 colon"
  label_value: "inactive"
- compound: "CC(=O)Nc1ccc(-c2ccc3c(c2)NC(=O)/C3=C\\c2ccc[nH]2)cc1"
  system: "SW-620 colon"
  label_value: "inactive"

Outcome? CCCCN1C=CCN(CCCC)C1
inactive

Outcome? CCOC(=O)C1=C(C)NC(SCc2cc(=O)oc3ccc(F)cc23)=N[C@@H]1c1cccc2ccccc12
inactive

Outcome? C#Cc1cccc(NC(=O)Nc2cccc(NC(=O)CCl)c2)c1
active

Outcome? CN(C)CCn1c2ccc(Br)cc2c2nc3ccccc3nc21
inactive

Outcome? O=C1c2ccccc2C(=O)c2c([N+](=O)[O-])ccc(Cl)c21
inactive
